# Test system: NCI-H460
# Protocol Notes: Tested for cytotoxicity of compound against NCI-H460 (lung)cell line; IA means inactive.
# Assay type: functional, cell-based
# Test Settings: Homo sapiens
Calls of active or inactive are those of the source. No cut-off for these calls is given here.

# Compound, IA
data = [
    ("CC(=O)N[C@@H]1[C@H](OCc2ccccc2)OC(CO)C(O)[C@H]1OC(C)C(=O)N[C@H](C)C(=O)N[C@H](CCC(=O)OCCCNC(=O)c1cccc2cc3ccccc3nc12)C(N)=O (some centres not stated)", "inactive"),
    ("CC(=O)N[C@@H]1[C@H](OCc2ccccc2)OC(CO)C(O)[C@H]1OC(C)C(=O)N[C@H](C)C(=O)N[C@H](CCC(=O)OCCCCNC(=O)c1cccc2cc3ccccc3nc12)C(N)=O (some centres not stated)", "inactive"),
    ("CC(=O)N[C@@H]1[C@H](OCc2ccccc2)OC(CO)C(O)[C@H]1OCC(=O)N[C@H](C)C(=O)N[C@H](CCC(=O)OCCNC(=O)c1cccc2cc3ccccc3nc12)C(N)=O (some centres not stated)", "inactive"),
    ("CC(=O)N[C@@H]1[C@H](OCc2ccccc2)OC(CO)C(O)[C@H]1OC(C)C(=O)N[C@H](C)C(=O)N[C@H](CCC(=O)OCCNC(=O)c1cccc2cc3ccccc3nc12)C(N)=O (some centres not stated)", "inactive"),
    ("CC(=O)N[C@@H]1[C@H](OCc2ccccc2)OC(CO)C(O)[C@H]1OC(C)C(=O)N[C@@H](C(=O)N[C@H](CCC(=O)OCCNC(=O)c1cccc2c(=O)c3ccccc3[nH]c12)C(N)=O)C(C)C (some centres not stated)", "inactive"),
    ("CC(=O)N[C@@H]1[C@H](OCc2ccccc2)OC(CO)C(O)[C@H]1OC(C)C(=O)N[C@@H](C(=O)N[C@H](CCC(=O)OCCCNC(=O)c1cccc2cc3ccccc3nc12)C(N)=O)C(C)C (some centres not stated)", "inactive"),
    ("CC(=O)N[C@@H]1[C@H](OCc2ccccc2)OC(CO)C(O)[C@H]1OCC(=O)N[C@H](C)C(=O)N[C@H](CCC(=O)OCCNC(=O)c1cccc2c(=O)c3ccccc3[nH]c12)C(N)=O (some centres not stated)", "inactive"),
]
